test system: A. baumannii strain 5075 (AB5075); test: Macrolide sensitization / antibiotic resensitization: antibiotic MIC in presence of compound (broth microdilution); assay type: cell-based, Acinetobacter baumannii; conditions: compound at 60 μM vs antibiotic alone; AB5075
# key: entry, value: Fold reduction (erythromycin MIC)

Please review the entries below; each comes with its answer.
INSERT INTO results (compound, property, val) VALUES
  ('Nc1nc(-c2ccc(NC(=O)c3cc(F)cc(F)c3)cc2)c[nH]1', 'Fold reduction (erythromycin MIC)', '8 fold'),
  ('Nc1nc(-c2ccc(NC(=O)c3cccc(F)c3)cc2)c[nH]1', 'Fold reduction (erythromycin MIC)', '8 fold'),
  ('Nc1nc(-c2ccc(NC(=O)c3ccc(Br)cc3F)cc2)c[nH]1', 'Fold reduction (erythromycin MIC)', '8 fold');

Data request: Can you share its Fold reduction (erythromycin MIC)? I mean this compound: Nc1nc(-c2ccc(NC(=O)c3ccc(Br)cc3)cc2)c[nH]1
Data returned: 4 fold

Data request: Can you share its Fold reduction (erythromycin MIC)? I mean this compound: Nc1nc(-c2ccc(NC(=O)c3c(F)c(F)c(F)c(F)c3F)cc2)c[nH]1
Data returned: 4 fold

Recorded values, source patent US20210283107A1.
